// provenance: paper PMC8815882

- Test system: M. mycetomatis genome strain MM55
- assayProcedure: CLSI M38-A2 based in vitro susceptibility screening (XTT or resazurin), growth at fixed concentration
- Format: cell-based, Madurella mycetomatis
- runParameters: Madurella mycetomatis, 100 uM, replicate 3; read-out: Percentage survival at 100um, 100 uM A (third replicate column)
Reported activity at 100 µM is given for each of the following compounds.
Respond with the bare value in %.

Answered examples (5):
* O=C(c1ccc(F)cc1)N1CCN2C(=O)c3ccccc3C12c1ccccc1 (centres unmarked) [MMV1165877] | 71.2
* Nc1nc(C(F)(F)F)cc2c1[nH]c(=O)n2Cc1ccccc1 [MMV1634389] | 81.6
* CCc1nc(N)nc(N)c1C#CCc1ccccc1 [MMV1581549] | 5.46
* NC(=O)c1c(N)sc2c1CCCCC2 [MMV056052] | 87.9
* CN1c2ccc(Cl)cc2N(c2ccccc2)C(=O)c2cn(Cc3ccc(CN4CCOCC4)cc3)nc21 [MMV1782222] | 58.2

query: Suppose we examine the compound O=C(CC1Sc2ncnn2C1=O)Nc1ccc(Br)cc1 (centres unmarked) [MMV214956] ; what activity at 100 µM value has been reported?
result: 3.91

query: Suppose we examine the compound Cc1c(OCC(F)(F)F)ccnc1C[S+]([O-])c1nc2ccccc2[nH]1 (centres unmarked) [MMV001438] ; what activity at 100 µM value has been reported?
result: 71.8

query: Suppose we examine the compound O=C(Nc1nnc(-c2ccc(Cl)cc2)o1)c1nc2ccccc2s1 [MMV102833] ; what activity at 100 µM value has been reported?
result: 71.7

----------
Reported activity at 25 µM is given for each of the following compounds.
- Tested on: M. mycetomatis genome strain MM55
- assayProcedure: CLSI M38-A2 based in vitro susceptibility screening (XTT or resazurin), growth at fixed concentration
- Type: cell-based, Madurella mycetomatis
- runParameters: Madurella mycetomatis, 25 uM, replicate A; read-out: Percentage survival at 25um, 25 um A
Respond with the bare value in %.

• Oc1cc(-c2cccc3ccccc23)[nH]n1 [MMV422940] = 89.3
• Oc1c(C(Nc2ccccn2)c2ccccc2)ccc2cccnc12 (stereo not shown) [MMV565773] = 9.67

query: Suppose we examine the compound CC(C)c1ccc(COc2cccc(-c3cc([S+](C)[O-])c(C#N)c(=O)[nH]3)c2)cc1 (stereo not shown) [MMV1582497] ; what activity at 25 µM value has been reported?
result: 65

query: Suppose we examine the compound COC(=O)Nc1nc2ccc([S+]([O-])c3ccccc3)cc2[nH]1 (stereo not shown) [MMV002565, Oxfendazole, reference compound] ; what activity at 25 µM value has been reported?
result: 91.3

----------
- System: M. mycetomatis genome strain MM55
- assayProcedure: CLSI M38-A2 based in vitro susceptibility screening (XTT or resazurin), growth at fixed concentration
- Type: cell-based, Madurella mycetomatis
- runParameters: Madurella mycetomatis, 100 uM, replicate 1; read-out: Percentage survival at 100um, 100 uM A (first replicate column)
Reported activity at 100 µM is given for each of the following compounds.
Respond with the bare value in %.

- Cc1nc2ccc(Oc3ccccc3)cc2c2c1CCN2CCc1ccccc1: 1.91
- O=C(Nc1nnc(-c2ccc(Cl)cc2)o1)c1nc2ccccc2s1: 81.5
- O=C1CCC(N2C(=O)c3ccccc3C2=O)C(=O)N1 (stereo not shown): 88.1
- CCc1cc(O)c(Oc2ccc(C(N)=O)cc2F)cc1F: 82.2
- CCCCc1ccc(-c2cc(C(=O)O)cc(-c3ccc(Cl)cc3)n2)cc1: 5.06
- Oc1ccc(NCc2ccccc2OCc2ccccc2)cc1: 2.17
- Cc1cc(C)n2nc(C(=O)NS(=O)(=O)c3c(C)cccc3OC(F)(F)F)nc2n1: 99
- FC(F)(F)Oc1ccc(Nc2ccc3cccc(Cl)c3n2)cc1: -4.67

query: Suppose we examine the compound `CCc1nc2ccc(Cl)cn2c1C(=O)NCc1ccc(N2CCC(c3ccc(OC(F)(F)F)cc3)CC2)cc1` ; what activity at 100 µM value has been reported?
result: 87.8

query: Suppose we examine the compound `CCc1nc(N)nc(N)c1C#CCc1ccccc1` ; what activity at 100 µM value has been reported?
result: 1.33
